Taken from patent US20030130280A1.

Molecular target: Wild-type FLT-3 (Homo sapiens)
Construct: host or cells: RS411 (RS4;11)
Sequence (P36888 27-993): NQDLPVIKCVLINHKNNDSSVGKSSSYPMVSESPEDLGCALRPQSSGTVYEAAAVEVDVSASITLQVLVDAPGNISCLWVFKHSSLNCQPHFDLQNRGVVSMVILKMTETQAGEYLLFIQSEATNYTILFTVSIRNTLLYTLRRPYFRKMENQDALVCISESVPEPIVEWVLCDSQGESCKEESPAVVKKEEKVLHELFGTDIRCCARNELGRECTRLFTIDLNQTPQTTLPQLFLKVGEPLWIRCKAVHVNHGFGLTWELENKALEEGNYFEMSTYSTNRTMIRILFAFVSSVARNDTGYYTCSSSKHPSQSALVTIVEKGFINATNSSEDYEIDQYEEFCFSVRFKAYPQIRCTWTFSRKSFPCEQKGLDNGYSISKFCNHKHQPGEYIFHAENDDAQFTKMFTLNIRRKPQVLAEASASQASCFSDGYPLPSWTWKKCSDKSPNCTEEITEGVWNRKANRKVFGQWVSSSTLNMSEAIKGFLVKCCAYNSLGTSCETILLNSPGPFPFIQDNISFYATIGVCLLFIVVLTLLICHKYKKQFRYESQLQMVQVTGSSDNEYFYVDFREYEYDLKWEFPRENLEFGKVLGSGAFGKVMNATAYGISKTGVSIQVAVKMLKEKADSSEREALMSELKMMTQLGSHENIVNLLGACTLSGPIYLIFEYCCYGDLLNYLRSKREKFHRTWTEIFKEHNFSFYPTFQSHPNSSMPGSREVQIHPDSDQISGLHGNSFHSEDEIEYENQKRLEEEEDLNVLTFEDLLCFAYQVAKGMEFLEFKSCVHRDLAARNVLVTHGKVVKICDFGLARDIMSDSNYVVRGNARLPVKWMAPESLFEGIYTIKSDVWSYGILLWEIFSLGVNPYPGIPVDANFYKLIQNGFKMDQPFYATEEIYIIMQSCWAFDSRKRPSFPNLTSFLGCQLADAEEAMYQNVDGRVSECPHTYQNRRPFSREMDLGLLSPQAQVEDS
Test: FLT-3 phosphorylation by immunoprecipitation/Western in RS411 cells; further: key: +++: very strong inhibition; ++: inhibition; +/−: weak inhibition; −: no inhibition
Assay type: cell-based
Settings: RS411 cells, IP/Western
quantity-measured: Wild-type FLT-3 (inhibition of phosphorylation)

compound: Cc1[nH]c(C=C2C(=O)Nc3ccc(F)cc32)c(C)c1C(=O)NCCN1CCCC1 [Compound 2]
value-observed: ++

compound: Cc1[nH]c(C=C2C(=O)Nc3ccc(Cl)cc32)c(C)c1C(=O)NCC(O)CN1CCOCC1 (centres unmarked) [Compound 7]
value-observed: ++

compound: Cc1cc(CCC(=O)O)c(C=C2C(=O)Nc3ccccc32)[nH]1 [Compound 10]
value-observed: +/−

compound: Cc1[nH]c(C=C2C(=O)Nc3ccc(F)cc32)c(C)c1C(=O)NCCN1CCOCC1 [Compound 3]
value-observed: +/−

compound: CCN(CC)CCNC(=O)c1c(C)[nH]c(/C=C2\C(=O)Nc3ccc(F)cc32)c1C [Compound 1]
value-observed: ++

compound: Cc1[nH]c(/C=C2\C(=O)Nc3ccc(F)cc32)c(C)c1C(=O)N1CCC(N2CCOCC2)CC1 [Compound 9]
value-observed: ++

compound: CCNCCNC(=O)c1c(C)[nH]c(C=C2C(=O)Nc3ccc(F)cc32)c1C [Compound 8]
value-observed: ++

compound: Cc1[nH]c(/C=C2\C(=O)Nc3ccccc32)c(C)c1CCC(=O)O [Comparative, reference compound]
value-observed: −
